meta.source: the RNAGym collection of RNA variant scans (doi:10.7554/elife.80360)

B1: Twister Ribozyme (parent)
chain: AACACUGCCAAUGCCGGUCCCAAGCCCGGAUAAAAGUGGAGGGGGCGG

Variants of: B1
Test: self-cleavage, relative activity (ratio to wild type); higher = more cleavage; co-transcriptional
Classification field: enter Satisfied for self-cleavage values not below 0.1, Not satisfied for values below it.

> print(dat)
    variant.designation            cat
 1            C14U C46G      Satisfied
 2             C3A G42C  Not satisfied
 3            G24C G48C      Satisfied
 4            A22G C25U      Satisfied
 5            C20G C26G  Not satisfied
 6            A23G A30U      Satisfied
 7            C20A A34U  Not satisfied
 8            G42U G48U      Satisfied
 9            G24C C27A      Satisfied
10            G36C G43C  Not satisfied
